B1: SLC35F2 (parent)
chain: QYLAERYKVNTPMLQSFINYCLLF

variants of: B1; test: protein stability index of a GFP-peptide fusion (GPS, HEK-293T) (PSI 1-6); higher = more stable; conditions: c terminus: a fixed tail appended;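 further: lentivirally expressed fusions sorted by FACS into six bins by GFP to DsRed ratio, PSI derived from sequencing read proportions per bin multiplied by bin number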
Quick reference for protein stability index among some variants
Reply with the value as a number alone.

Below, 3 variants whose answers are already recorded.
L23F: 2.96
Y20L: 2.94
F17M: 3.02

Now consider the entry below.
Query (variant): Q15C ; field requested: protein stability index
2.95

Origin of the recorded values: the supplement of paper PMC10567573
